# Experiment summary: yeast display, Sf9 membrane polyspecificity reagent, FACS + sequencing; frameworks hold sequencing errors
Observable: polyreactivity (PSR sort gate)

Answered cases to consult:
Sequence chain	polyreactivity (PSR sort gate)
QVQLVESGGGLVQAGGSLRLSCAASGIIFYLYAMGWYRQARGKEWELVAAISRRGVSTYYADSLMGRFTISRDNAKNTVYLQMNSLKPEDTAVYYCAAAGFGYTGEEYWGQGTQVTVSS	high polyreactivity
QVQLVESGGGLVQAGGSLRLSCAASGRTFNGYAMGWYRQAPGKERELVAAISSSGSTNYADSVKGRFTISRDNAKNTVYLQMNSLKPEDTAVYYCAAEYYAYESVEYDYWGQGTQVTVSS	low polyreactivity
QVQLVESGGGLVQAGGSLRLSCAASGSPFRHYALGWYRQAPGKERELVAVISWGGTSTYYADSGKGRFTISRDNAKNTVYLQMNSLKPEDSAVYYCNADSNWYYQWNYYGLYDYWGQGTQVTVSS	low polyreactivity
QVQLVESGGGLVQAGGSLRLSCAASGRIFSSYAMGWYRQAPGKERELVAVISQRGGSTSYADSVKGRFTISRDNAKNTVYLQMNSLKPEDTAVYYCARRPGKGNNYWGQGTQVTVSS	high polyreactivity

Okay, next one:
Provide polyreactivity (PSR sort gate) value for the following sequence: "QVQLVESGGGLVQAGGSLRLSCAASGFIFRAYTKGWYRQAPGKERELVAAITSSGGRTNYADSVKGRFTISRDNAKNTVYLQMNSLKPEDTAVYYCATVYAKWKQFDYWGQGTQVTVSS"
high polyreactivity
